target: Acetylcholinesterase (Electrophorus electricus, UniProt O42275)
Sequence (O42275 whole entry): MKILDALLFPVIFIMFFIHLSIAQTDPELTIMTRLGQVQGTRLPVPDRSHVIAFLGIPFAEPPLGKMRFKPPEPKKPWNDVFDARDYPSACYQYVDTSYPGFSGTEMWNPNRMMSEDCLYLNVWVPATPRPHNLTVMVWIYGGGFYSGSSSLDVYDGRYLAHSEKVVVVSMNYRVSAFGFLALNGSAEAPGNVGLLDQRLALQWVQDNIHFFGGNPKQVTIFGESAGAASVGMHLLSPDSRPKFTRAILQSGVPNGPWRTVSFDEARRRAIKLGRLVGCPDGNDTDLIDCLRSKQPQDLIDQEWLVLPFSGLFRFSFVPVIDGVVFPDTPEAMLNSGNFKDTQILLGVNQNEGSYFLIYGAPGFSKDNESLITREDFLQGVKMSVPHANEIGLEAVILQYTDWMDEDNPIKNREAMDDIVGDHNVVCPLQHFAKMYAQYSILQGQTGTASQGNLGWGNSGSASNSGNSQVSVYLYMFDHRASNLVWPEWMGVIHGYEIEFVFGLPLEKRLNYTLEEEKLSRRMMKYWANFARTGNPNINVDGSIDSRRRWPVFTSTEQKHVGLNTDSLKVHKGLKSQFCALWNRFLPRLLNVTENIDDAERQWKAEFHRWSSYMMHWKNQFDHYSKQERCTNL
ATTRIBUTE_MEASURED: Ki (nM)
Give bare numbers, in nM.

[
  {
    "CHEMICAL_STRING": "Oc1ccc(/C=N/c2c3c(nc4ccccc24)CCCC3)cc1O",
    "UNIT_DESCRIPTOR": "nM",
    "Ki": 2100
  },
  {
    "CHEMICAL_STRING": "Oc1ccc(/C=N/c2c3c(nc4ccccc24)CCCC3)cc1",
    "UNIT_DESCRIPTOR": "nM",
    "Ki": 3000
  },
  {
    "CHEMICAL_STRING": "c1ccc(COc2ccc(CCOCCCCCNc3c4c(nc5ccccc35)CCCC4)cc2)cc1",
    "UNIT_DESCRIPTOR": "nM",
    "Ki": 110
  }
]

Give Ki for each of the items listed below.
1. C(=N\c1c2c(nc3ccccc13)CCCC2)/c1ccc(OCc2ccccc2)cc1
2. COc1ccc(CCOCCCCCNc2c3c(nc4ccccc24)CCCC3)cc1

1. 39000
2. 75

Give Ki for each of the items listed below.
1. Oc1ccc(CCNc2c3c(nc4ccccc24)CCCC3)cc1
2. c1ccc(COc2ccc(CCOCCCCCNc3c4c(nc5ccccc35)CCCC4)cc2OCc2ccccc2)cc1
3. Oc1ccc(CNc2c3c(nc4ccccc24)CCCC3)cc1
4. c1ccc2c(N3CCCC3)c3c(nc2c1)CCCC3
5. COc1ccc(CNc2c3c(nc4ccccc24)CCCC3)cc1OC

1. 110
2. 340
3. 370
4. 3200
5. 640
